# tested.on: T1, biotinylated goat anti-human kappa light chain
# T1 construct: positive control of the ELISA
# test.description: ELISA, positive control; also: test concentration or dose not given here
measurement.label: optical density (OD)
I only need the number, in OD, no unit after it.

Below: 4 binders and their reported optical density.
| binder | optical density / OD |
| --- | --- |
| 371_C01 (antibody, V domains shown, Group III) VH: EVQLLESGGGLVQPGGSLRLSCAASGFTFSSYGMHWVRQAPGKGLEWVSSINYNGGYTGYADSVKGRFTISRDNSKNTLYLQMNSLRAEDTAVYYCARGANWHDTHLDYWGQGTLVTVSS VL: DIQMTQSPSSLSASVGDRVTITCRASQSIVSYLNWYQQKPGKAPKLLIYAATSRHSGVPSRFSGSGSGTDFTLTISSLQPEDFATYYCQQSYDNPLTFGGGTKVEIK | 3.59 |
| 373_D12 (antibody, V domains shown, Group III) VH: EVQLLESGGGLVQPGGSLRLSCAASGFTFDSYSMNWVRQAPGKGLEWVSSINYNSGYKGYADSVKGRFTISRDNSKNTLYLQMNSLRAEDTAVYYCARGANWHDTHLDYWGQGTLVTVSS VL: DIQMTQSPSSLSASVGDRVTITCRASQSILSYVNWYQQKPGKAPKLLIYAATSRASGVPSRFSGSGSGTDFTLTISSLQPEDFATYYCQQSYSLPLTFGGGTKVEIK | 3.21 |
| 373_A01 (antibody, V domains shown, Group III) VH: EVQLLESGGGLVQPGGSLRLSCAASGFTFSSYGMNWVRQAPGKGLEWVSNINYNGGYTGYADSVKGRFTISRDNSKNTLYLQMNSLRAEDTAVYYCARGANWHDTHLDYWGQGTLVTVSS VL: DIQMTQSPSSLSASVGDRVTITCRASQSIVTYLNWYQQKPGKAPKLVIYATTSRASGVPSRFSGSGSGTDFTLTISSLQPEDFATYYCQQSYNLPLTFGGGTKVEIK | 2.95 |
| 374_D06 (antibody, V domains shown, Group III) VH: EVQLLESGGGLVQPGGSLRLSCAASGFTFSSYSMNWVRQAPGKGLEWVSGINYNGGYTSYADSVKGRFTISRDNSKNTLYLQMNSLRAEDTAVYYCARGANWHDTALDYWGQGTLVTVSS VL: DIQMTQSPSSLSASVGDRVTITCRASQSILSYVNWYQQKPGKAPKLVIYAATSRASGVPSRFSGSGSGTDFTLTISSLQPEDFATYYCQQSYDSPLTFGGGTKVEIK | 3.12 |

Please turn your attention to the following entry.
// sample 372_B02 (antibody, V domains shown, Group III) VH: EVQLLESGGGLVQPGGSLRLSCAASGFTFSSYSMNWVRQAPGKGLEWVSGINYNSGYTSYADSVKGRFTISRDNSKNTLYLQMNSLRAEDTAVYYCARGANWHDTALDYWGQGTLVTVSS VL: DIQMTQSPSSLSASVGDRVTITCRASQSILSYVNWYQQKPGKAPKLLIYAVTSLASGVPSRFSGSGSGTDFTLTISSLQPEDFATYYCQQSYETPLTFGGGTKVEIK , its optical density was 3.67
